Tested on: HIV
assayComment: HIV MT4 Assay (antiviral HIV activity in MT-4 cells)
Assay type: cell-based
assayContext: MT4, 96 h, read-out: MT4 (IC50)
pIC50: −log10 of the molar value.
# label = rule met if pIC50 >= 7 else rule not met

# input Reported pIC50 at or above 7? Cc1ccc(-c2c(C(OC(C)(C)C)C(=O)O)n(C)c(=O)c3c2cnn3Cc2ccc(F)cc2)cc1 (centres unmarked) [Example 64]
# output rule not met

# input Please answer likewise for Cc1c(-c2c(C(OC(C)(C)C)C(=O)O)n(C)c(=O)c3c2ccn3C)ccc2c1CCCO2 (centres unmarked) [Example 40]
# output rule not met

# input Please answer likewise for Cc1ccc(-c2c(C(OC(C)(C)C)C(=O)O)n(C)c(=O)c3c2c2ccccc2n3Cc2ccc(F)cc2)cc1 (centres unmarked) [Example 56]
# output rule not met

# input Please answer likewise for Cc1c(-c2c(C(OC(C)(C)C)C(=O)O)n(C)c(=O)c3c2ccn3Cc2ccccn2)ccc2c1CCCO2 (centres unmarked) [Example 42]
# output rule not met

# input Please answer likewise for Cn1c(C(OC(C)(C)C)C(=O)O)c(-c2ccc(Cl)cc2)c2ccn(S(=O)(=O)c3ccc(F)cc3)c2c1=O (centres unmarked) [Example 16]
# output rule not met

# input Please answer likewise for Cn1c(C(OC(C)(C)C)C(=O)O)c(-c2ccc(Cl)cc2)c2ccn(CCN3CCCCC3)c2c1=O (centres unmarked) [Example 7]
# output rule not met

# input Please answer likewise for Cc1ccc(-c2c(C(OC(C)(C)C)C(=O)O)n(C)c(=O)c3c2ccn3Cc2ccc(S(C)(=O)=O)cc2)cc1 (centres unmarked) [Example 27]
# output rule not met

# input Please answer likewise for Cc1ccc(-c2c(C(OC(C)(C)C)C(=O)O)n(C)c(=O)c3c2ccn3Cc2ccc(C(N)=O)cc2)cc1 (centres unmarked) [Example 22]
# output rule not met

----------
Test system: HIV
assayComment: HIV MT4 Assay (antiviral HIV activity in MT-4 cells)
Assay type: cell-based
assayContext: MT4, 96 h, read-out: MT4 (IC50)
Counter-ions that a name gives are not always drawn.
# Lookup of reported pIC50 keyed by entry
# reply with the number alone; pIC50 is -log10 of concentration in mol/L

As a guide, the following entries are already answered.
- compound: "Cc1c(-c2c(C(OC(C)(C)C)C(=O)O)n(C)c(=O)c3c2ccn3Cc2ccc([N+](=O)[O-])cc2)ccc2c1CCCO2 (centres unmarked)"
  pIC50: 7.40
- compound: "Cc1ccc(-c2c(C(OC(C)(C)C)C(=O)O)n(C)c(=O)c3c2ccn3Cc2ccc(SC(F)(F)F)cc2)cc1 (centres unmarked)"
  pIC50: 5.82
- compound: "Cc1ccc(-c2c(C(OC(C)(C)C)C(=O)O)n(C)c(=O)c3c2ccn3CC(=O)Nc2ccc(F)cc2)cc1 (centres unmarked)"
  pIC50: 6.00
- compound: "CC(C)Cn1ccc2c(-c3ccc(Cl)cc3)c(C(OC(C)(C)C)C(=O)O)n(C)c(=O)c21 (centres unmarked)"
  pIC50: 5.30
- compound: "Cc1ccc(Cn2ccc3c(-c4ccc5c(c4C)CCCO5)c(C(OC(C)(C)C)C(=O)O)n(C)c(=O)c32)cc1F (centres unmarked)"
  pIC50: 7.40
- compound: "Cc1ccc(-c2c(C(OC(C)(C)C)C(=O)O)n(C)c(=O)c3c2ccn3Cc2ccc3c(c2)OCO3)cc1 (centres unmarked)"
  pIC50: 6.68
- compound: "Cc1c(-c2c(C(OC(C)(C)C)C(=O)O)n(C)c(=O)c3c2ccn3Cc2ccc(C(F)(F)F)cc2)ccc2c1CCCO2 (centres unmarked)"
  pIC50: 7.05
- compound: "COc1ccc(Cn2ncc3c(-c4ccc5c(c4C)CCCO5)c(C(OC(C)(C)C)C(=O)O)n(C)c(=O)c32)cc1 (centres unmarked)"
  pIC50: 6.39

# input Bench note: what pIC50 did Cc1c(-c2c(C(OC(C)(C)C)C(=O)O)n(C)c(=O)c3c2ccn3Cc2ccc(F)cc2)ccc2c1CCCO2 (atropisomer, axis not shown; (M)) show?
# output 8.00

# input Please answer likewise for Cc1c(-c2c(C(OC(C)(C)C)C(=O)O)n(C)c(=O)c3c2ccn3Cc2ccc(Cl)cc2)ccc2c1CCCO2 (centres unmarked)
# output 7.30

# input Please answer likewise for Cc1ccc(-c2c(C(OC(C)(C)C)C(=O)O)n(C)c(=O)c3c2c2ccccc2n3C)cc1 (centres unmarked)
# output 7.10

# input Please answer likewise for Cc1ccc(-c2c(C(OC(C)(C)C)C(=O)O)n(C)c(=O)c3c2c2c(n3Cc3ccc(F)cc3)CCOC2)cc1 (centres unmarked)
# output 6.12

# input Please answer likewise for COc1ccc(Cn2ccc3c(-c4ccc(C)cc4)c(C(OC(C)(C)C)C(=O)O)n(C)c(=O)c32)cc1 (centres unmarked)
# output 6.77

# input Please answer likewise for Cc1c(-c2c(C(OC(C)(C)C)C(=O)O)n(C)c(=O)c3c2ccn3Cc2cscn2)ccc2c1CCCO2 (centres unmarked) [Example 50, Trifluoroacetic acid salt]
# output 6.64

----------
Tested on: HIV
assayComment: HIV MT4 Assay (antiviral HIV activity in MT-4 cells)
Assay type: cell-based
assayContext: MT4, 96 h, read-out: MT4 (IC50)
pIC50: −log10 of the molar value.
# label = Criterion met if pIC50 >= 6 else Criterion not met

Worked examples follow.
- compound: "CC(c1ccccc1)n1ccc2c(-c3ccc(Cl)cc3)c(C(OC(C)(C)C)C(=O)O)n(C)c(=O)c21 (stereo not drawn)"
  assignedClass: "Criterion met"
- compound: "Cc1ccc(-c2c(C(OC(C)(C)C)C(=O)O)n(C)c(=O)c3c2c2c(n3Cc3ccc(F)cc3)CCCC2)cc1 (stereo not drawn)"
  assignedClass: "Criterion met"
- compound: "Cc1ccc(-c2c(C(OC(C)(C)C)C(=O)O)n(C)c(=O)c3c2ccn3Cc2ccc(B(O)O)cc2)cc1 (stereo not drawn)"
  assignedClass: "Criterion not met"
- compound: "COc1ccc(-c2c(C(OC(C)(C)C)C(=O)O)n(C)c(=O)c3c2ccn3Cc2ccc(F)cc2)cc1 (stereo not drawn)"
  assignedClass: "Criterion met"
- compound: "COCCn1ccc2c(-c3ccc(Cl)cc3)c(C(OC(C)(C)C)C(=O)O)n(C)c(=O)c21 (stereo not drawn)"
  assignedClass: "Criterion not met"
- compound: "Cc1c(-c2c(C(OC(C)(C)C)C(=O)O)n(C)c(=O)c3sc4c(c23)CCCC4)ccc2c1CCCO2 (stereo not drawn)"
  assignedClass: "Criterion met"
- compound: "COc1ccc(Cn2ccc3c(-c4ccc(Cl)cc4)c(C(OC(C)(C)C)C(=O)O)n(C)c(=O)c32)cc1 (stereo not drawn)"
  assignedClass: "Criterion met"
- compound: "Cc1ccc(-c2c(C(OC(C)(C)C)C(=O)O)n(C)c(=O)c3c2ccn3Cc2cc(F)c(F)c(F)c2)cc1 (stereo not drawn)"
  assignedClass: "Criterion met"
- compound: "Cn1c(C(OC(C)(C)C)C(=O)O)c(-c2ccc(Cl)cc2)c2ccn(Cc3cn(CCO)nn3)c2c1=O (stereo not drawn)"
  assignedClass: "Criterion not met"
- compound: "Cc1c(-c2c(C(OC(C)(C)C)C(=O)O)n(C)c(=O)c3c2ccn3Cc2cc(F)ccc2F)ccc2c1CCCO2 (stereo not drawn)"
  assignedClass: "Criterion met"

Now examine the next entry.
# input Reported pIC50 at or above 6? Cn1c(C(OC(C)(C)C)C(=O)O)c(-c2ccc(Cl)cc2)c2ccn(Cc3cn4ccccc4n3)c2c1=O (stereo not drawn)
# output Criterion not met

----------
Tested on: HIV
assayComment: HIV MT4 Assay (antiviral HIV activity in MT-4 cells)
Type: cell-based
assayContext: MT4, 96 h, read-out: MT4 (IC50)
# Lookup of reported pIC50 keyed by entry
# reply with the number alone; pIC50 is -log10 of concentration in mol/L

As a guide, the following entries are already answered.
- compound: "Cc1ccc(-c2c(C(OC(C)(C)C)C(=O)O)n(C)c(=O)c3c2c2c(n3C)CCCC2)cc1 (stereo not shown) [Example 60]"
  experimentalTarget: "HIV"
  outcomeMeasure: "pIC50"
  measured: 7.30
- compound: "Cc1ccc(-c2c(C(OC(C)(C)C)C(=O)O)n(C)c(=O)c3c2ccn3CCc2ccc(F)cc2)cc1 (stereo not shown) [Example 26]"
  experimentalTarget: "HIV"
  outcomeMeasure: "pIC50"
  measured: 5.65

API: the following record is the query input.
# input Bench note: what pIC50 did Cc1nc(Cn2ccc3c(-c4ccc(Cl)cc4)c(C(OC(C)(C)C)C(=O)O)n(C)c(=O)c32)cs1 (stereo not shown) [Example 11] show?
# output 6.51

----------
Tested on: HIV
assayComment: HIV MT4 Assay (antiviral HIV activity in MT-4 cells)
Type: cell-based
assayContext: MT4, 96 h, read-out: MT4 (IC50)
Note to self: class = bucket of IC50, per bucket 1: < 80 nM; bucket 2: ≥ 80 nM and < 200 nM; bucket 3: ≥ 200 nM

Worked examples follow.
- compound: "Cc1c(-c2c(C(OC(C)(C)C)C(=O)O)n(C)c(=O)c3c2ccn3Cc2ccccc2)ccc2c1CCCO2 (stereo not drawn) [Example 38]"
  experimentalTarget: "HIV"
  assignedClass: "bucket 1"
- compound: "Cc1ccc(-c2c(C(OC(C)(C)C)C(=O)O)n(C)c(=O)c3c2ccn3Cc2ccc3nonc3c2)cc1 (stereo not drawn) [Example 20]"
  experimentalTarget: "HIV"
  assignedClass: "bucket 2"
- compound: "Cn1c(C(OC(C)(C)C)C(=O)O)c(-c2ccc(Cl)cc2)c2ccn(Cc3cc(F)ccc3F)c2c1=O (stereo not drawn) [Example 8]"
  experimentalTarget: "HIV"
  assignedClass: "bucket 2"
- compound: "Cc1ccc(-c2c(C(OC(C)(C)C)C(=O)O)n(C)c(=O)c3c2ccn3Cc2ccc(Cl)c(F)c2)cc1 (stereo not drawn) [Example 31]"
  experimentalTarget: "HIV"
  assignedClass: "bucket 2"

# input Where would Cc1ccc(-c2c(C(OC(C)(C)C)C(=O)O)n(C)c(=O)c3c2ccn3-c2ccc(F)cc2)cc1 (stereo not drawn) [Example 34] land among the classes by reported IC50?
# output bucket 3

# input Please answer likewise for Cc1c(-c2c(C(OC(C)(C)C)C(=O)O)n(C)c(=O)c3c2cnn3Cc2ccccn2)ccc2c1CCCO2 (stereo not drawn) [Example 66]
# output bucket 3

# input Please answer likewise for Cn1c([C@H](OC(C)(C)C)C(=O)O)c(-c2ccc(Cl)cc2)c2ccn(Cc3ccc(F)c(F)c3)c2c1=O [Example 6]
# output bucket 2

# input Please answer likewise for COc1ccc(Cn2ccc3c(-c4ccc5c(c4C)CCCO5)c(C(OC(C)(C)C)C(=O)O)n(C)c(=O)c32)cc1 (atropisomer, axis not shown; (M)) [Example 53]
# output bucket 1

# input Please answer likewise for COc1ccc(Cn2c3c(c4c(-c5ccc(C)cc5)c(C(OC(C)(C)C)C(=O)O)n(C)c(=O)c42)CCCC3)cc1 (stereo not drawn) [Example 61]
# output bucket 2

# input Please answer likewise for COc1ccc(Cn2c3c(c4c(-c5ccc6c(c5C)CCCO6)c(C(OC(C)(C)C)C(=O)O)n(C)c(=O)c42)CCCC3)cc1 (stereo not drawn) [Example 62]
# output bucket 1

# input Please answer likewise for Cc1c(-c2c(C(OC(C)(C)C)C(=O)O)n(C)c(=O)c3c2ccn3CC2CCOCC2)ccc2c1CCCO2 (stereo not drawn) [Example 52]
# output bucket 3

# input Please answer likewise for Cn1c(C(OC(C)(C)C)C(=O)O)c(-c2ccc(Cl)cc2)c2ccn(Cc3ccc(C(F)(F)F)o3)c2c1=O (stereo not drawn) [Example 9]
# output bucket 3
